Assay: viability rescue of complex I mutant cybrids, primary screen, cell-based, galactose medium, ATP luminescence (AID 1645843);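 further: positive z means more ATP and so rescue of galactose-driven cybrid death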
Conditions: complex I mutant cybrid cells, 72 h, hits give high values
assay_endpoint: z-score
# output: bare number, no unit

Clc1ccc(COC(Cn2ccnc2)c2ccc(Cl)cc2Cl)cc1 (stereo not given) | -1.53
O=P1(NCCCl)OCCCN1CCCl (stereo not given) | 0.08
NC(=O)c1cc(N2CC2)c([N+](=O)[O-])cc1[N+](=O)[O-] | 0.09
O=C1/C(=C/c2ccccc2)C[C@@]2(O)[C@H]3Cc4ccc(O)c5c4[C@@]2(CCN3CC2CC2)[C@H]1O5 | -1
CN1C[C@H](C(=O)N[C@]2(C)O[C@@]3(O)[C@@H]4CCCN4C(=O)[C@H](Cc4ccccc4)N3C2=O)C=C2c3cccc4[nH]cc(c34)C[C@H]21 | 1.08
Cc1c2ccncc2c(C)c2c1[nH]c1ccccc12 | -0.975
O=C(O)CCC(CP(=O)(O)O)C(=O)O (stereo not given) | -0.22
CC(C)(Cc1c[nH]c2ccc(Cl)cc12)NCCOc1ccccc1OCC1CC1 | -1.23

Fill blank: measured z-score of the molecule Nc1ncnc2c1ncn2[C@@H]1O[C@H](COP(=O)(O)CP(=O)(O)OP(=O)(O)O)[C@H](O)C1O (stereo not given in full) is ____.
2.36

Next: CC(Cc1ccc(OCC(=O)O)cc1)NCC(O)c1cccc(Cl)c1 (stereo not given)
0.62
